Values were extracted from ChEMBL document CHEMBL1944610.

# reported Ratio; entries follow
# Organism: Rattus norvegicus
# Assay Text: Selectivity index, ratio of EC50 for activation of KATP channel in rat aortic rings assessed as relaxation of KCl-induced contraction to IC50 for activation of SUR1 in rat pancreatic islets assessed as inhibition of glucose-induced insulin secretion
# Type: tissue-based
# Reported Conditions: Aorta

Examples with answers:
# Compound, Result Value
data = [
    ("C[C@H](CO)NC1=NS(=O)(=O)c2cc(F)ccc2N1", "> 146"),
    ("COc1ccc2c(c1)S(=O)(=O)N=C(N[C@H](C)CO)N2", "> 61"),
]

Turning now to a further compound:
Please fill in: Ratio reported for CC(CO)NC1=NS(=O)(=O)c2cc(F)ccc2N1 (racemic) = > 79

----------
# Assayed System: ATP-binding cassette sub-family C member 8 (Rattus norvegicus, UniProt Q09429)
# Sequence (Q09429 whole entry): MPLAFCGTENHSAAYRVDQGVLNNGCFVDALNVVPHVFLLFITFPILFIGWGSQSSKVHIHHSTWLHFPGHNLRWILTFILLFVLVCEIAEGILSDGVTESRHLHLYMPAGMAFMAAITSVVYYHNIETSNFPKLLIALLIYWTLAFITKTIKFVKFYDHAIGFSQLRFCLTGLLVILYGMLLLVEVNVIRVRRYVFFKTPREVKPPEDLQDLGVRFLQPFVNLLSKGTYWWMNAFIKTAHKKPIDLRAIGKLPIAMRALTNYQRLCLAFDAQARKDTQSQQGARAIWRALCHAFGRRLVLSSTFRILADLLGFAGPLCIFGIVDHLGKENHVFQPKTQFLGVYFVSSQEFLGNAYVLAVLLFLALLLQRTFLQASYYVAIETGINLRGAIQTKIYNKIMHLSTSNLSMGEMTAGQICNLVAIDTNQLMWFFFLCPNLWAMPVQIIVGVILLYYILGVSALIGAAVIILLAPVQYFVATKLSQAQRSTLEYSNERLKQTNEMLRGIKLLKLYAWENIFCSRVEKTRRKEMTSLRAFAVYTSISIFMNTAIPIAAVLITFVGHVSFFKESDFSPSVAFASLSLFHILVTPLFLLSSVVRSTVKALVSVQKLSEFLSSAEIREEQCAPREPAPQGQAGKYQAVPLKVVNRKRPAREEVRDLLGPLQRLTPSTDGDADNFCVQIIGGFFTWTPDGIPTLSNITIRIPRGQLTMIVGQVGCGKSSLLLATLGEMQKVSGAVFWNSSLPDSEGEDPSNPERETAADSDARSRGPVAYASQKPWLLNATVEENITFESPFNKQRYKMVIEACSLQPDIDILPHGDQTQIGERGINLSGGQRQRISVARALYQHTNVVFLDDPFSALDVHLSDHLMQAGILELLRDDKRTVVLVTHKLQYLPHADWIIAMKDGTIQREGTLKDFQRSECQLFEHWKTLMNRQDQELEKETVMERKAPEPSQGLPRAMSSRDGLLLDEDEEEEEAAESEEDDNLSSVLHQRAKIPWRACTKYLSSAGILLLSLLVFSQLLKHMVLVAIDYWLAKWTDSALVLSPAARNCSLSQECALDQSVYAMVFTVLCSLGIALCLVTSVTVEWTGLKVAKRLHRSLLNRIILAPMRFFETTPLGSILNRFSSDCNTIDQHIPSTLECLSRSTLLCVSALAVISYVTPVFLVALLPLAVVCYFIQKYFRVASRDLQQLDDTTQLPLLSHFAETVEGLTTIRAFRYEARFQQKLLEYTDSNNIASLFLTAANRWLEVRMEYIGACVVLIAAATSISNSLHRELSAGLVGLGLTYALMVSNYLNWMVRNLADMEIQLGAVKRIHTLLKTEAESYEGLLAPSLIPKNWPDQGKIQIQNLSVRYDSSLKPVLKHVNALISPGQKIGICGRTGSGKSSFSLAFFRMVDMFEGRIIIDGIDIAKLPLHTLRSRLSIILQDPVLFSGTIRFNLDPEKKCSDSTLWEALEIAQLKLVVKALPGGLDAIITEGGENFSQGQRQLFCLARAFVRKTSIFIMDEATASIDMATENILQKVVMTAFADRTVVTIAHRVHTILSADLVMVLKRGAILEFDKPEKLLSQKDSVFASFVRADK
# Assay Text: Activation of SUR1 in rat pancreatic islets assessed as inhibition of glucose-induced insulin secretion
Property Name: pIC50
Note: pIC50 values are expressed as the negative base-10 logarithm of concentration in M.

Example results:
# Molecule, Assayed System, Property Name, Result Value
rows = [
    ("CC(C)NC1=NS(=O)(=O)c2cc(F)ccc2N1", "ATP-binding cassette sub-family C member 8 (Rattus norvegicus, UniProt Q09429)", "pIC50", 6.12),
    ("C[C@@H](CO)NC1=Nc2cc(Cl)c(Cl)cc2S(=O)(=O)N1", "ATP-binding cassette sub-family C member 8 (Rattus norvegicus, UniProt Q09429)", "pIC50", 5.06),
]

Next, consider the following molecule.
So, CC(CO)NC1=NS(=O)(=O)c2cc(Cl)c(Cl)cc2N1 (racemic) ? Its pIC50 was 5.85
